Tested on: optic nerve (retinal ganglion cell axons)
Assay: optic nerve transection after intravitreal injection of NAD biosynthetic substrates, neurofilament immunoreactivity by Western blotting
Type: in vivo, rat
Details: 5 μl of 100 mM intravitreal, 24 hours before transection, 4 days after transection
readout_label: neurofilament immunoreactivity of axotomized optic nerve, of non-axotomized optic nerve

// solved cases for neurofilament immunoreactivity of axotomized optic nerve, of non-axotomized optic nerve follow
NC(=O)c1ccc[n+]([C@@H]2O[C@H](CO)[C@@H](O)[C@H]2O)c1 [NmR, nicotinamide riboside]; 72±19%
NC(=O)c1ccc[n+]([C@@H]2O[C@H](COP(=O)([O-])O)[C@@H](O)[C@H]2O)c1 [NMN, nicotinamide mononucleotide]; 60±25%

Req: Annotate the compound NC(=O)c1ccc[n+]([C@@H]2O[C@H](COP(=O)([O-])OP(=O)(O)OC[C@H]3O[C@@H](n4cnc5c(N)ncnc54)[C@H](O)[C@@H]3O)[C@@H](O)[C@H]2O)c1 [NAD, β-nicotinamide adenine dinucleotide] with its measured neurofilament immunoreactivity of axotomized optic nerve, of non-axotomized optic nerve.
Resp: 78±22%
